Reported values of pIC50 for individual entries
Target: CDK7/cyclin H/MAT1 complex (Homo sapiens (Human))
Sequence (P50613 whole entry, species assumed): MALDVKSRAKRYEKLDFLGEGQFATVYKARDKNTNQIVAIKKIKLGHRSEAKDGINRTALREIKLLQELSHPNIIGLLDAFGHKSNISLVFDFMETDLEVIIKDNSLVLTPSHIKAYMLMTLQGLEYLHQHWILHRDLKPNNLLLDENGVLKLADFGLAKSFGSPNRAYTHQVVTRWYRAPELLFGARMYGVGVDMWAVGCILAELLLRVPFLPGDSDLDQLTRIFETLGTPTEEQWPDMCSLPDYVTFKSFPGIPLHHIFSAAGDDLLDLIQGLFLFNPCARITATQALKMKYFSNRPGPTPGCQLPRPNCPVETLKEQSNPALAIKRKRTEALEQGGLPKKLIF
Sequence (P51946 whole entry partner, species assumed): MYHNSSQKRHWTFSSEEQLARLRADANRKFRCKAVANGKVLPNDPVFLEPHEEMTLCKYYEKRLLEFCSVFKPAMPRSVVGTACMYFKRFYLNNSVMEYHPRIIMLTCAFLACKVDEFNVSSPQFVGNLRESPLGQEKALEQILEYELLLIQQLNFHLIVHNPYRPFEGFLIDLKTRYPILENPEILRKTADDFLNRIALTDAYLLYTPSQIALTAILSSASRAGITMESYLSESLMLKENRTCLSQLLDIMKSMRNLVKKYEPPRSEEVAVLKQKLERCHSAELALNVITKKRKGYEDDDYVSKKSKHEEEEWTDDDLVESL
Sequence (P51948 whole entry partner, species assumed): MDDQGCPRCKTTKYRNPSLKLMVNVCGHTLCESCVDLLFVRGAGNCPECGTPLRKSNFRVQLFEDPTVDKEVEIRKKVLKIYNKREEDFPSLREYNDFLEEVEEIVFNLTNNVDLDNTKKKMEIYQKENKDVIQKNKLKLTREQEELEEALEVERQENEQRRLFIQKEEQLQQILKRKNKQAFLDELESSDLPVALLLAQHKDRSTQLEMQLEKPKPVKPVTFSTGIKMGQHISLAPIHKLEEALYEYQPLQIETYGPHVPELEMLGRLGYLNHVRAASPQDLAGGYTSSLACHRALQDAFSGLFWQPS
Assay: In vitro enzymatic inhibitory activity test, CDK7
Conditions: Caliper mobility shift, 180 min at 27° C.
pIC50: −log10 of the molar value.
outcome.measure: pIC50

>  <compound>
C[C@@H]1OCC2(CCN(c3ccc4c(-c5nc(N[C@H]6CCCNC6)ncc5C(F)(F)F)c[nH]c4n3)CC2)[C@@H]1N [Compound 12]

>  <measurement.target>
CDK7/cyclin H/MAT1 complex (Homo sapiens (Human))

>  <endpoint.value>
7.76

$$$$
>  <compound>
C[C@H]1CNC[C@@H](Nc2ncc(C(F)(F)F)c(-c3c[nH]c4nc(N5CCOC[C@@H]5C)ccc34)n2)C1 [Compound 72]

>  <measurement.target>
CDK7/cyclin H/MAT1 complex (Homo sapiens (Human))

>  <endpoint.value>
7.75

$$$$
>  <compound>
OCC1CCN(c2ccc3c(-c4nc(N[C@H]5CCCNC5)ncc4C(F)(F)F)c[nH]c3n2)CC1 [Compound 4]

>  <measurement.target>
CDK7/cyclin H/MAT1 complex (Homo sapiens (Human))

>  <endpoint.value>
7.76

$$$$
>  <compound>
CP(C)(=O)c1ccc2c(-c3nc(N[C@H]4CCCNC4)ncc3C(F)(F)F)c[nH]c2n1 [Compound 114]

>  <measurement.target>
CDK7/cyclin H/MAT1 complex (Homo sapiens (Human))

>  <endpoint.value>
8.17

$$$$
